assay: Plasma pharmacokinetics and brain distribution after single IV, IP and oral administration; type: in vivo; details: male, C57BL/6, mouse; plasma, IV 2 mg/kg; read-out: T1/2, terminal elimination half-life (converted)
Structures can show the parent of a compound that is named as a salt.
Can you tell me half-life for the items I'm about to list?
Use min as the unit, but write only the number.

According to the records, this molecule [2H]C([2H])([2H])Oc1ccc(Nc2nc(-c3c(C)nc4ccccn34)cs2)cc1 [Compound 15, hydrochloride] displays half-life of 52.8

According to the records, this molecule [2H]C1([2H])Oc2ccc(Nc3nc(-c4c(C)nc5ccccn45)cs3)cc2O1 [Compound 17, hydrochloride] displays half-life of 12.6

###

experiment: Plasma pharmacokinetics and brain distribution after single IV, IP and oral administration; format: in vivo; conditions: male, C57BL/6, mouse, in vivo, ip, 10 mg/kg, Brain concentration, individual animal
Counter-ions that a name gives are not always drawn.
Can you tell me concentration at 1 h for the items I'm about to list?
Use ng/g as the unit, but write only the number.

According to the records, this molecule [2H]C1([2H])Oc2ccc(Nc3nc(-c4c(C)nc5ccccn45)cs3)cc2O1 [Compound 17, hydrochloride] displays concentration at 1 h of 65.9

According to the records, this molecule [2H]C([2H])([2H])Oc1ccc(Nc2nc(-c3c(C)nc4ccccn34)cs2)cc1 [Compound 15, hydrochloride] displays concentration at 1 h of 383

###

assay: Plasma pharmacokinetics and brain distribution after single IV, IP and oral administration; format: in vivo; conditions: male, C57BL/6, mouse, in vivo, ip, 10 mg/kg, Mean plasma conc.
Counter-ions that a name gives are not always drawn.
READOUT LABEL: concentration at 1 h (ng/mL)
Use ng/mL as the unit, but write only the number.

According to the records, this compound [2H]C1([2H])Oc2ccc(Nc3nc(-c4c(C)nc5ccccn45)cs3)cc2O1 [Compound 17, hydrochloride] displays concentration at 1 h of 232

According to the records, this compound Cc1nc2ccccn2c1-c1csc(Nc2ccc3c(c2)OC(F)(F)O3)n1 [Compound 16, hydrochloride] displays concentration at 1 h of 79.1

According to the records, this compound [2H]C([2H])([2H])Oc1ccc(Nc2nc(-c3c(C)nc4ccccn34)cs2)cc1 [Compound 15, hydrochloride] displays concentration at 1 h of 409

###

experiment: Plasma pharmacokinetics and brain distribution after single IV, IP and oral administration; type: in vivo; details: male, C57BL/6, mouse, in vivo, iv, 10 mg/kg, Mean plasma conc.
Structures can show the parent of a compound that is named as a salt.
READOUT LABEL: concentration at 6 hr (ng/mL)
Use ng/mL as the unit, but write only the number.

According to the records, this compound Cc1nc2ccccn2c1-c1csc(Nc2ccc3c(c2)OC(F)(F)O3)n1 [Compound 16, hydrochloride] displays concentration at 6 hr of 0

###

assay: in vitro; format: in vitro ADME, mice; conditions: mouse, Plasma, pH 7.4
Structures can show the parent of a compound that is named as a salt.
Can you tell me recovery at 4 h, 5 µM for the items I'm about to list?
Use % as the unit, but write only the number.

According to the records, this compound CC(=O)CC(c1ccccc1)c1c(O)c2ccccc2oc1=O (stereo not drawn) [Warfarin, reference compound] displays recovery at 4 h, 5 µM of 109

According to the records, this compound [2H]C([2H])([2H])Oc1ccc(Nc2nc(-c3c(C)nc4ccccn34)cs2)cc1 [Compound 15, hydrochloride] displays recovery at 4 h, 5 µM of 114

According to the records, this compound Cc1nc2ccccn2c1-c1csc(Nc2ccc3c(c2)OC(F)(F)O3)n1 [Compound 16, hydrochloride] displays recovery at 4 h, 5 µM of 117
